Quick list: IC50 per entry.
Target: truncated human beta-secretase (residues 1-458, His6-tagged at the C-terminus) (Homo sapiens, UniProt P56817)
Construct: truncated human beta-secretase (residues 1-458, His6-tagged at the C-terminus); His6 (C); made in house; host or cells: insect cells D. melanogaster S2 (baculovirus expression system (so in the source))
Sequence (P56817 22-458): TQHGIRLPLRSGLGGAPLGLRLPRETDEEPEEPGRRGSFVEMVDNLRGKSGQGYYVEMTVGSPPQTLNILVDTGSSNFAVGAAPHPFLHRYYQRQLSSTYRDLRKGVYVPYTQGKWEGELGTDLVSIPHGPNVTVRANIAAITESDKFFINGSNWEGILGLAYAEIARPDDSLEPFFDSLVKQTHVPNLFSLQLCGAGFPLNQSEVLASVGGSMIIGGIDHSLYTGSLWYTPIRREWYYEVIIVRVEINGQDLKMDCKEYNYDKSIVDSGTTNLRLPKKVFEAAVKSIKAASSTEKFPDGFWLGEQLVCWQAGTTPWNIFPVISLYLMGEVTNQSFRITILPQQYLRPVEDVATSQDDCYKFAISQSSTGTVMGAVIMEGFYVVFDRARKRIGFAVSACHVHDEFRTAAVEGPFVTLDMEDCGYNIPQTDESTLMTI
Assay: BACE fluorescence quench assay
Assay type: biochemical
Conditions: in vitro enzyme activity, BACE fluorescence assay, pH 4.5; read-out: IC50
Method: The assay was performed at room temperature in 96-well white opaque Optiplates aque Optiplates (PerkinElmer, Waltham, Mass.) in a total volume of 200 μl of the incubation mixture containing 50 mM sodium acetate buffer, pH 4.5, 0.4 μM FRET substrate, 2.4 nM enzyme, 5% DMSO, and 0.05% Brij-35. […] The reaction was started by addition of enzyme, and the progress of the reaction was followed by measuring fluorescence with an excitation wavelength of 480 nm and an emission wavelength of 520 nm. […]

Record request: IC50 value, item CN1OC2(CC3(CCCCC3)Oc3ccc(-c4cccc(C#N)c4)cc32)NC1=N (stereo not drawn) [Compound 118]
1000 to 5000 nM

Record request: IC50 value, item CC(C)=CC(CCO)C1CC2(N=C(N)N(C)O2)c2cc(-c3cccc(Cl)c3)ccc2O1 (stereo not drawn) [Compound 412]
1000 to 5000 nM

Record request: IC50 value, item CN1O[C@]2(C[C@@H](C[C@@H]3CCCO3)Oc3ccc(-c4cccc(C#N)c4)cc32)N=C1N (stereo in doubt) [Compound 367]
500 to 1000 nM

Record request: IC50 value, item CN1C(=O)C2(CC(C3CCOC(C)(C)C3)Oc3ccc(-c4cc(F)cc(F)c4)cc32)N=C1N (stereo not drawn) [Compound 372]
500 to 1000 nM

Record request: IC50 value, item Cc1cccc(-c2ccc3c(c2)[C@]2(C[C@]4(CCCOC4)O3)N=C(N)N(C)C2=O)c1C [Compound 389]
1000 to 5000 nM

Record request: IC50 value, item COC1CCC2(CC1)CC1(N=C(N)N(C)O1)c1cc(-c3cccc(C#N)c3)ccc1O2 (stereo not drawn) [Compound 388]
1000 to 5000 nM

Record request: IC50 value, item CN1OC2(CC(C3CCCOC3)Oc3ccc(-c4cc(F)cc(F)c4)cc32)N=C1N (stereo not drawn) [Compound 90]
100 to 500 nM

Record request: IC50 value, item CCCCNC(=O)c1cccc(-c2ccc3c(c2)[C@]2(C[C@H](c4ccccc4)O3)N=C(N)N(C)C2=O)c1 [Compound 55a]
10000 to 50000 nM

Record request: IC50 value, item CN1C(=O)[C@@]2(C[C@@]3(CCCOC3)Oc3ccc(-c4ccc5cn[nH]c5c4)cc32)N=C1N [Compound 457]
10000 to 50000 nM

Record request: IC50 value, item CCN1C(=O)C2(CC(c3ccccc3)Oc3ccc(Br)cc32)N=C1N (stereo not drawn) [Compound 69]
10000 to 50000 nM

Record request: IC50 value, item CN1C(=O)[C@@]2(C[C@@]3(CCCOC3)Oc3ccc(-c4cccc(C#N)n4)cc32)N=C1N [Compound 446]
5000 to 10000 nM

Record request: IC50 value, item CN1O[C@@]2(C[C@H](C3CCOc4ccccc43)Oc3ccc(-c4cccc(C#N)c4)cc32)N=C1N (stereo partly drawn) [Compound 331]
100 to 500 nM

Record request: IC50 value, item CN1C(=O)[C@@]2(C[C@]3(CCCOC3)Oc3ccc(-c4cccc(-n5cccc5)n4)cc32)N=C1N [Compound 424]
1000 to 5000 nM

Record request: IC50 value, item CN1O[C@@]2(C[C@@]3(CCOC3)Oc3ccc(-c4cccc(C#N)c4)cc32)N=C1N (relative stereo) [Compound 113a]
500 to 1000 nM

Record request: IC50 value, item CN1OC2(CC3(CCCOC3)Oc3ccc(C#Cc4ccccc4)cc32)N=C1N (stereo not drawn) [Compound 454]
10000 to 50000 nM

###

Biological target: truncated human beta-secretase (residues 1-458, His6-tagged at the C-terminus) (Homo sapiens, UniProt P56817)
Construct: truncated human beta-secretase (residues 1-458, His6-tagged at the C-terminus); His6 (C); made in house; host or cells: insect cells D. melanogaster S2 (baculovirus expression system (so in the source))
Experiment: BACE fluorescence quench assay
Assay type: biochemical
Conditions: in vitro enzyme activity, BACE fluorescence assay, pH 4.5; read-out: IC50
pIC50: −log10 of the molar value.
Quick list: pIC50 per entry.

Record request: pIC50 value, item CCN1C(=O)C2(CC(c3ccccc3)Oc3ccc(-c4cccc(C#N)c4)cc32)N=C1N (centres unmarked)
6.30 to 7.00

***
Record request: pIC50 value, item CN1C(=O)C2(CC(C3CCOC(C)(C)C3)Oc3ccc(-c4cc(C#N)ccc4C(F)(F)F)cc32)N=C1N (centres unmarked)
6.30 to 7.00

Record request: pIC50 value, item CN1O[C@@]2(C[C@]3(CCOC3)Oc3ccc(-c4cccc(C#N)c4)cc32)N=C1N [Compound 113b]
6.00 to 6.30

Record request: pIC50 value, item CC(=O)c1cccc(-c2ccc3c(c2)[C@]2(C[C@]4(CCCOC4)O3)N=C(N)N(C)C2=O)c1
6.00 to 6.30

Record request: pIC50 value, item CN1C(=O)[C@@]2(C[C@]3(CCCOC3)Oc3ccc(-c4ccco4)cc32)N=C1N
5.30 to 6.00

Record request: pIC50 value, item CCCN1C(=O)C2(CC(c3ccccc3)Oc3ccc(Br)cc32)N=C1N (centres unmarked)
4.30 to 5.00

Record request: pIC50 value, item CC(=O)N1CCC2(CC1)CC1(N=C(N)N(C)O1)c1cc(-c3cccc(C#N)c3)ccc1O2 (centres unmarked)
5.30 to 6.00

Record request: pIC50 value, item Cc1ccc(C)c(-c2ccc3c(c2)C2(CC4(CCCOC4)O3)N=C(N)N(C)C2=O)c1 (centres unmarked)
6.00 to 6.30

###

Biological target: truncated human beta-secretase (residues 1-458, His6-tagged at the C-terminus) (Homo sapiens, UniProt P56817)
Construct: truncated human beta-secretase (residues 1-458, His6-tagged at the C-terminus); His6 (C); made in house; host or cells: insect cells D. melanogaster S2 (baculovirus expression system (so in the source))
Assay: BACE fluorescence quench assay
Type: biochemical
Conditions: in vitro enzyme activity, BACE fluorescence assay, pH 4.5; read-out: IC50
PROPERTY LABEL: IC50

Record request: IC50 value, item CN1OC2(CC3(CCC(OCc4ccccc4)CC3)Oc3ccc(-c4cccc(C#N)c4)cc32)N=C1N (stereo not drawn)
1000 to 5000 nM

Record request: IC50 value, item CN1OC2(C[C@H]([C@H]3CCOC(C)(C)C3)Oc3ccc(-c4cc(F)cc(Cl)c4)cc32)N=C1N (stereo partly drawn)
100 to 500 nM

Record request: IC50 value, item CN1OC2(CC(C3CCCOC3)Oc3ccc(-c4ccc(F)c(C#N)c4F)cc32)N=C1N (stereo not drawn)
100 to 500 nM

Record request: IC50 value, item CN1OC2(CC(C3CCOC(C)(C)C3)Oc3ccc(-c4cccc(-n5cccc5)n4)cc32)N=C1N (stereo not drawn)
5000 to 10000 nM

Record request: IC50 value, item CN1OC2(CC3(CCCN(c4ccccc4)C3)Oc3ccc(-c4cccc(C#N)c4)cc32)N=C1N (stereo not drawn)
500 to 1000 nM

Record request: IC50 value, item CN1C(=O)C2(CC3(CCCOC3)Oc3ccc(-c4cc(F)cc(F)c4F)cc32)N=C1N (stereo not drawn)
500 to 1000 nM

###

Molecular target: truncated human beta-secretase (residues 1-458, His6-tagged at the C-terminus) (Homo sapiens, UniProt P56817)
Construct: truncated human beta-secretase (residues 1-458, His6-tagged at the C-terminus); His6 (C); made in house; host or cells: insect cells D. melanogaster S2 (baculovirus expression system (so in the source))
Experiment: BACE fluorescence quench assay
Assay type: biochemical
pIC50: −log10 of the molar value.
PROPERTY LABEL: pIC50

Record request: pIC50 value, item CN1C(=O)C2(CC(c3ccccc3)Oc3ccc(-c4cccc(C(F)(F)F)c4)cc32)N=C1N (stereo not shown)
5.30 to 6.00

Record request: pIC50 value, item CN1C(=O)C2(CC(c3ccccc3)Oc3ccc(-c4cccc(OC(F)(F)F)c4)cc32)N=C1N (stereo not shown)
5.30 to 6.00

Record request: pIC50 value, item CN1C(=O)C2(CC(c3ccccc3)Oc3ccc(-c4cccc(S(C)(=O)=O)c4)cc32)N=C1N (stereo not shown)
5.30 to 6.00

***
Record request: pIC50 value, item CN(C)C(=O)c1ccc(-c2ccc3c(c2)C2(CC(c4ccccc4)O3)N=C(N)N(C)C2=O)cc1 (stereo not shown)
4.30 to 5.00

Record request: pIC50 value, item CN(C)C(=O)c1cccc(-c2ccc3c(c2)C2(CC(c4ccccc4)O3)N=C(N)N(C)C2=O)c1 (stereo not shown)
5.30 to 6.00

These data points were gathered from patent US8450308B2.
